Where these numbers come from: patent US20110212094A1

Biological target: Recombinant Human TNF-α/TNFSF1A (human, UniProt P01375 77-233)
Sequence (P01375 77-233 limits assumed): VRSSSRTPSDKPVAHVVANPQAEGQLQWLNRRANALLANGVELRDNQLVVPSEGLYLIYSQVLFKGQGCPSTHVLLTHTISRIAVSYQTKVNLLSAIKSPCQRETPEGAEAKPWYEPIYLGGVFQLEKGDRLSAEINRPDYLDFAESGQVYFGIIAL
Test: cell-based or functional assay
propertyMeasured: TNFα Neutralization Assay EC50 nM (L929 cells)
Report field: quantity (unit follows the number).

Inquiry: Tell me its TNFα Neutralization Assay EC50 nM (L929 cells) given AB215 (antibody, human IgG1, kappa, V domains shown, Parent anti-TNF antibody; also called AB215VH) VH: QVQLVESGGGVVQPGRSLRLSCAASGFTFSSYAMHWVRQAPGNGLEWVAFMSYDGSNKYAKDSVKGRFTISRDNSKNTLYLQMNSLRAEDTAVYYCARDRGIAAGGNYYYYGMDVWGQGTTVTVSS VL: EIVLTQSPATLSLSPGERATLSCRASQSVYSYLAWYQQKPGQAPRLLIYDASNRATGIPARFSGSGSGTDFTLTISSLEPEDFAVYYCQQRSNWPPFTFGPGTKVDIKR as the entry.
Reply text: 1.21 nM
